Test system: 233499-124-R-J3-PDC complex spheroid viability, % test/control
Assay: Anticancer human tumor 233499-124-R-J3-PDC patient-derived colon adenocarcinoma cell line growth inhibition
Settings: second compound 1 µM; first compound 0.316 µM; hits give low values
parameter measured: viability, T/C (%)
Report as a plain number; the unit % is understood.

Input line: # return viability, T/C for O=C(C=Cn1cnc(-c2cc(C(F)(F)F)cc(C(F)(F)F)c2)n1)NNc1cnccn1 + NC1CCC(NC2CC2c2ccccc2)CC1 , test system: 233499-124-R-J3-PDC complex spheroid viability, % test/control
Output line: 30.9

Input line: Give viability, T/C for Nc1ncn(C2CC(O)C(CO)O2)c(=O)n1 (configuration not stated) + NC1CC1c1ccc(-c2cccc(O)c2)cc1 tested on 233499-124-R-J3-PDC complex spheroid viability, % test/control.
Output line: 69.1

Input line: State recorded viability, T/C with 233499-124-R-J3-PDC complex spheroid viability, % test/control, entry CC1COCCN1c1cc(-c2ccnn2C)c2ccnc(-c3ccn[nH]3)c2n1 (configuration not stated) + NC1CCC(NC2CC2c2ccccc2)CC1 , no comment.
Output line: 21.9

Input line: Give the observed viability, T/C of CC1COCCN1c1cc(C2(S(C)(=N)=O)CC2)nc(-c2ccnc3[nH]ccc23)n1 (configuration not stated) + NC1CCC(NC2CC2c2ccccc2)CC1 for 233499-124-R-J3-PDC complex spheroid viability, % test/control.
Output line: 84.3

Input line: # return viability, T/C of CC1COCCN1c1cc(-c2ccnn2C)c2ccnc(-c3ccn[nH]3)c2n1 (configuration not stated) + NC1CC1c1ccc(-c2cccc(O)c2)cc1 (system: 233499-124-R-J3-PDC complex spheroid viability, % test/control)
Output line: 39.1

Input line: Send back 233499-124-R-J3-PDC complex spheroid viability, % test/control viability, T/C of CC1(C)CCC(CN2CCN(c3ccc(C(=O)NS(=O)(=O)c4ccc(NCC5CCOCC5)c([N+](=O)[O-])c4)c(Oc4cnc5[nH]ccc5c4)c3)CC2)=C(c2ccc(Cl)cc2)C1 + NC1CC1c1ccc(-c2cccc(O)c2)cc1 only.
Output line: 97.8

Input line: Report viability, T/C from 233499-124-R-J3-PDC complex spheroid viability, % test/control testing of O=C(c1cc(Cc2n[nH]c(=O)c3ccccc23)ccc1F)N1CCN(C(=O)C2CC2)CC1 + NC1CCC(NC2CC2c2ccccc2)CC1
Output line: 71.1

Input line: Recall the reported viability, T/C of COc1ccc([C@@H](O)c2cc(-c3ncnc4cc(N5CCOCC5)ccc34)c(F)cc2Cl)nn1 + NC1CCC(NC2CC2c2ccccc2)CC1 when tested on 233499-124-R-J3-PDC complex spheroid viability, % test/control.
Output line: 64.7

Input line: State the measured viability, T/C (233499-124-R-J3-PDC complex spheroid viability, % test/control) of CC(C)c1c(-c2ccccc2)nc2c(C#N)c[nH]n2c1=O + NC1CCC(NC2CC2c2ccccc2)CC1
Output line: 90

Input line: State viability, T/C on 233499-124-R-J3-PDC complex spheroid viability, % test/control. Entry: CC1COCCN1c1cc(C2(S(C)(=N)=O)CC2)nc(-c2ccnc3[nH]ccc23)n1 (configuration not stated) + NC1CC1c1ccc(-c2cccc(O)c2)cc1
Output line: 93.9

Input line: Report value only: viability, T/C, 233499-124-R-J3-PDC complex spheroid viability, % test/control, COc1ccc([C@@H](O)c2cc(-c3ncnc4cc(N5CCOCC5)ccc34)c(F)cc2Cl)nn1 + NC1CC1c1ccc(-c2cccc(O)c2)cc1
Output line: 79.1

Input line: Tell me viability, T/C of COc1cc(Nc2ncc3c(n2)-c2ccc(Cl)cc2C(c2c(F)cccc2OC)=NC3)ccc1C(=O)O + NC1CC1c1ccc(-c2cccc(O)c2)cc1 when tested on 233499-124-R-J3-PDC complex spheroid viability, % test/control.
Output line: 60.6

Input line: Write viability, T/C of O=C(c1cc(Cc2n[nH]c(=O)c3ccccc23)ccc1F)N1CCN(C(=O)C2CC2)CC1 + NC1CC1c1ccc(-c2cccc(O)c2)cc1 ; system used: 233499-124-R-J3-PDC complex spheroid viability, % test/control
Output line: 91.6

Input line: Print 233499-124-R-J3-PDC complex spheroid viability, % test/control viability, T/C for O=C(C=Cn1cnc(-c2cc(C(F)(F)F)cc(C(F)(F)F)c2)n1)NNc1cnccn1 + NC1CC1c1ccc(-c2cccc(O)c2)cc1 .
Output line: 67.3

Input line: Give 233499-124-R-J3-PDC complex spheroid viability, % test/control viability, T/C for the following molecule: CC1(C)CCC(CN2CCN(c3ccc(C(=O)NS(=O)(=O)c4ccc(NCC5CCOCC5)c([N+](=O)[O-])c4)c(Oc4cnc5[nH]ccc5c4)c3)CC2)=C(c2ccc(Cl)cc2)C1 + NC1CCC(NC2CC2c2ccccc2)CC1
Output line: 97.8

Input line: Name the recorded viability, T/C of Nc1ncn(C2CC(O)C(CO)O2)c(=O)n1 (configuration not stated) + NC1CCC(NC2CC2c2ccccc2)CC1 , assay system 233499-124-R-J3-PDC complex spheroid viability, % test/control.
Output line: 85.1

Input line: Enter viability, T/C (test system 233499-124-R-J3-PDC complex spheroid viability, % test/control) for CC(C)c1c(-c2ccccc2)nc2c(C#N)c[nH]n2c1=O + NC1CC1c1ccc(-c2cccc(O)c2)cc1
Output line: 95.1

====

System: 233499-124-R-J3-PDC complex spheroid viability, % test/control
Assay: Anticancer human tumor 233499-124-R-J3-PDC cell line growth inhibition;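 note: spheroids exposed to agents for one week before readout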
Details: second compound 3.16 µM; first compound 0.316 µM; hits give low values
parameter measured: viability, T/C (%)
Give the number; % is assumed, so skip it.

Input line: Look up viability, T/C of Nc1ncn(C2CC(O)C(CO)O2)c(=O)n1 (centres undefined) + NC1CC1c1ccc(-c2cccc(O)c2)cc1 and report it.
Output line: 74.6

Input line: Recall and state the measured viability, T/C for CC(C)c1c(-c2ccccc2)nc2c(C#N)c[nH]n2c1=O + NC1CC1c1ccc(-c2cccc(O)c2)cc1 .
Output line: 97.3

Input line: Please report the measured viability, T/C for COc1ccc([C@@H](O)c2cc(-c3ncnc4cc(N5CCOCC5)ccc34)c(F)cc2Cl)nn1 + NC1CC1c1ccc(-c2cccc(O)c2)cc1
Output line: 75.9

Input line: Please report viability, T/C for the following compound: COc1ccc([C@@H](O)c2cc(-c3ncnc4cc(N5CCOCC5)ccc34)c(F)cc2Cl)nn1 + NC1CCC(NC2CC2c2ccccc2)CC1
Output line: 75.2

====

System: 233499-124-R-J3-PDC complex spheroid viability, % test/control
Assay: Anticancer human tumor 233499-124-R-J3-PDC cell line growth inhibition; active = viability on the fitted dose curve at most 10% of control; inactive = the rest;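 note: spheroids exposed to agents for one week before readout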
Details: second compound 0.316 µM; first compound 0.001 µM
A correct response names exactly one class from YES (active), NO (inactive)

Input line: Recorded test outcome, item CC(C)CC(NC(=O)C(Cc1ccccc1)NC(=O)c1cnccn1)B(O)O (stereo not drawn) + NC1CCC(NC2CC2c2ccccc2)CC1
Output line: NO

Input line: Please indicate how the test categorized CC[C@@]1(O)C(=O)OCc2c1cc1n(c2=O)Cc2cc3c(CN(C)C)c(O)ccc3nc2-1 + NC1CC1c1ccc(-c2cccc(O)c2)cc1 .
Output line: NO

Input line: Test call, this molecule: CC(C)CC(NC(=O)CNC(=O)c1cc(Cl)ccc1Cl)B1OC(=O)CC(CC(=O)O)(C(=O)O)O1 (stereo not drawn) + NC1CCC(NC2CC2c2ccccc2)CC1
Output line: NO

Input line: Recorded test call requested for Cn1ncnc1C1c2n[nH]c(=O)c3cc(F)cc(c23)NC1c1ccc(F)cc1 (stereo not drawn) + NC1CCC(NC2CC2c2ccccc2)CC1
Output line: NO

Input line: // outcome(item) with item = CC(C)CC(NC(=O)C(Cc1ccccc1)NC(=O)c1cnccn1)B(O)O (stereo not drawn) + NC1CC1c1ccc(-c2cccc(O)c2)cc1
Output line: YES

Input line: Check the results log: what was the call for CC(C)CC(NC(=O)CNC(=O)c1cc(Cl)ccc1Cl)B1OC(=O)CC(CC(=O)O)(C(=O)O)O1 (stereo not drawn) + NC1CC1c1ccc(-c2cccc(O)c2)cc1 ?
Output line: NO

Input line: Hello, I am checking results. What call was entered for CC[C@@]1(O)C(=O)OCc2c1cc1n(c2=O)Cc2cc3c(CN(C)C)c(O)ccc3nc2-1 + NC1CCC(NC2CC2c2ccccc2)CC1 ?
Output line: NO

Input line: Please indicate how the test categorized Cn1ncnc1C1c2n[nH]c(=O)c3cc(F)cc(c23)NC1c1ccc(F)cc1 (stereo not drawn) + NC1CC1c1ccc(-c2cccc(O)c2)cc1 .
Output line: NO

====

Test system: 233499-124-R-J3-PDC complex spheroid viability, % test/control
Experiment: Anticancer human tumor 233499-124-R-J3-PDC cell line growth inhibition;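 note: spheroids exposed to agents for one week before readout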
Settings: second compound 1 µM; first compound 0.1 µM; hits give low values
What viability, T/C was measured for each of the following?

Input line: State, in one line, measured viability, T/C of Cn1ncnc1C1c2n[nH]c(=O)c3cc(F)cc(c23)NC1c1ccc(F)cc1 (configuration not stated) + NC1CC1c1ccc(-c2cccc(O)c2)cc1
Output line: 88.5%

Input line: Input CC1COCCN1c1cc(-c2ccnn2C)c2ccnc(-c3ccn[nH]3)c2n1 (configuration not stated) + NC1CC1c1ccc(-c2cccc(O)c2)cc1 , output reported viability, T/C.
Output line: 40.1%

Input line: Recall and state the measured viability, T/C for Nc1ncn(C2CC(O)C(CO)O2)c(=O)n1 (configuration not stated) + NC1CCC(NC2CC2c2ccccc2)CC1 .
Output line: 72.5%

Input line: Specify measured viability, T/C for CC1COCCN1c1cc(C2(S(C)(=N)=O)CC2)nc(-c2ccnc3[nH]ccc23)n1 (configuration not stated) + NC1CCC(NC2CC2c2ccccc2)CC1 .
Output line: 78.5%

Input line: Quote viability, T/C reported for COc1cc(Nc2ncc3c(n2)-c2ccc(Cl)cc2C(c2c(F)cccc2OC)=NC3)ccc1C(=O)O + NC1CC1c1ccc(-c2cccc(O)c2)cc1 please.
Output line: 54.3%

Input line: Provide viability, T/C value for the following compound: CC1COCCN1c1cc(-c2ccnn2C)c2ccnc(-c3ccn[nH]3)c2n1 (configuration not stated) + NC1CCC(NC2CC2c2ccccc2)CC1
Output line: 33.9%

Input line: Please indicate viability, T/C recorded for CC[C@@]1(O)C(=O)OCc2c1cc1n(c2=O)Cc2cc3c(CN(C)C)c(O)ccc3nc2-1 + NC1CCC(NC2CC2c2ccccc2)CC1
Output line: 63.8%
